Could you please report measured ratio of amounts bound (Z=Y/X) for the items listed next?
Biological target: T1, CD3 epsilon homodimer protein (UniProt P07766 23-126)
T1 construct: also called CD3 (CD3 epsilon)
T1 sequence (P07766 23-126): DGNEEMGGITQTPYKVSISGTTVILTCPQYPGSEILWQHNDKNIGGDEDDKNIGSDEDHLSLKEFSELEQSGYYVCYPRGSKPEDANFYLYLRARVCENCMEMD
Test: SPR Biacore T200, CD3e homodimer on chip, vs unaltered GLS3000 antibody
Please respond with just the number, no unit label.

The binder listed as GLS3000 Y96L (antibody, name in Kabat numbering, V domains shown, one-arm IgG as m2) VH: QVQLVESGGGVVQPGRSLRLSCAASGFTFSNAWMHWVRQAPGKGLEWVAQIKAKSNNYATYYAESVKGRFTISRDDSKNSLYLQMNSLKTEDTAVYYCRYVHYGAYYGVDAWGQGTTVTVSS VL: DIVMTQSPLSLPVTPGEPASISCRSSQSLVHSNRNTYLHWYQQKPGQAPRLLIYKVSNRFSGVPDRFSGSGSGTDFTLKISRVEAEDVGVYYCGQGTQVPLTFGQGTKLEIK has a reported ratio of amounts bound (Z=Y/X) of 0.32

The binder listed as GLS3000 H34N (antibody, name in Kabat numbering, V domains shown, one-arm IgG as m2) VH: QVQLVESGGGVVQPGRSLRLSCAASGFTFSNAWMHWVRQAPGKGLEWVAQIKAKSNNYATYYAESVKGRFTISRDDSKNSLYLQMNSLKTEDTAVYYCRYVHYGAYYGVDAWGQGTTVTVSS VL: DIVMTQSPLSLPVTPGEPASISCRSSQSLVHSNRNTYLNWYQQKPGQAPRLLIYKVSNRFSGVPDRFSGSGSGTDFTLKISRVEAEDVGVYYCGQGTQVPYTFGQGTKLEIK has a reported ratio of amounts bound (Z=Y/X) of 0.65

The binder listed as GLS3000 Q90D (antibody, name in Kabat numbering, V domains shown, one-arm IgG as m2) VH: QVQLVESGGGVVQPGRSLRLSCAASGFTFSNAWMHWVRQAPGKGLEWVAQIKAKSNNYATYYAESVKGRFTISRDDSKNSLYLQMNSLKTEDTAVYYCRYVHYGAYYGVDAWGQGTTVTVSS VL: DIVMTQSPLSLPVTPGEPASISCRSSQSLVHSNRNTYLHWYQQKPGQAPRLLIYKVSNRFSGVPDRFSGSGSGTDFTLKISRVEAEDVGVYYCGDGTQVPYTFGQGTKLEIK has a reported ratio of amounts bound (Z=Y/X) of 0.19
